The reported measurements were obtained from ChEMBL document CHEMBL1139683.

# MEASUREMENT NOTES: Clearance in iv dosed rat
# Assay type: ADME, organism-based
# TEST CONDITIONS: in vivo
ASSAY METRIC: clearance
Value and unit, in that order.

>>> observed_result("Cc1ccccc1NC(=O)Nc1ccc(-c2cccn(Cc3ccc([C@H](C)CC(=O)O)cc3)c2=O)cc1")
"16 mL/min/kg"

Turning now to a further compound:
Could you share which clearance value was measured for `COc1cc(-c2cccn(Cc3ccc([C@H](C)CC(=O)O)cc3)c2=O)ccc1NC(=O)Nc1ccccc1C` ? 9 mL/min/kg

====

# Ki annotations
# MEASUREMENT TARGET: Integrin alpha-4/beta-1 (Homo sapiens, UniProt P05556+P13612)
# Sequence (P05556 whole entry): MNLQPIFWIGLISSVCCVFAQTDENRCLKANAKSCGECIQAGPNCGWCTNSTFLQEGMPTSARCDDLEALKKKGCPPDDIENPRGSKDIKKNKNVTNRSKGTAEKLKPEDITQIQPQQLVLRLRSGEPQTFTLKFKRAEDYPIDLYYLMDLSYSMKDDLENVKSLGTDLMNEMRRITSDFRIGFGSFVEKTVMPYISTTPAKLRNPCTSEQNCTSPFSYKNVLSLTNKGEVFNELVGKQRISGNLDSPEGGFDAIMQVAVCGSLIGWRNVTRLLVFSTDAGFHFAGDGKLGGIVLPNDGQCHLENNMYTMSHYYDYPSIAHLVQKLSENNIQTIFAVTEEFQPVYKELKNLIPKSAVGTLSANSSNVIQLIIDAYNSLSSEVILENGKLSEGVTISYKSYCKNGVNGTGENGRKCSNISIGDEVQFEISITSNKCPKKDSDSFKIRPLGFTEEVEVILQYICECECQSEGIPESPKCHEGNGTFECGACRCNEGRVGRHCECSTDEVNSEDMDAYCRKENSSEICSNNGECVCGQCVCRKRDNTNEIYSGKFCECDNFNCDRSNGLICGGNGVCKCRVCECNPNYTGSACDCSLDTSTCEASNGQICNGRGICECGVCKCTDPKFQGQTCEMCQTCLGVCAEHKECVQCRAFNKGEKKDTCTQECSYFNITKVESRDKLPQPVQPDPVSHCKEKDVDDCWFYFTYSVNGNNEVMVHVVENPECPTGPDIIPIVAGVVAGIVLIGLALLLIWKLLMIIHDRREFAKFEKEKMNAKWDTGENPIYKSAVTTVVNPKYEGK
# Sequence (P13612 whole entry): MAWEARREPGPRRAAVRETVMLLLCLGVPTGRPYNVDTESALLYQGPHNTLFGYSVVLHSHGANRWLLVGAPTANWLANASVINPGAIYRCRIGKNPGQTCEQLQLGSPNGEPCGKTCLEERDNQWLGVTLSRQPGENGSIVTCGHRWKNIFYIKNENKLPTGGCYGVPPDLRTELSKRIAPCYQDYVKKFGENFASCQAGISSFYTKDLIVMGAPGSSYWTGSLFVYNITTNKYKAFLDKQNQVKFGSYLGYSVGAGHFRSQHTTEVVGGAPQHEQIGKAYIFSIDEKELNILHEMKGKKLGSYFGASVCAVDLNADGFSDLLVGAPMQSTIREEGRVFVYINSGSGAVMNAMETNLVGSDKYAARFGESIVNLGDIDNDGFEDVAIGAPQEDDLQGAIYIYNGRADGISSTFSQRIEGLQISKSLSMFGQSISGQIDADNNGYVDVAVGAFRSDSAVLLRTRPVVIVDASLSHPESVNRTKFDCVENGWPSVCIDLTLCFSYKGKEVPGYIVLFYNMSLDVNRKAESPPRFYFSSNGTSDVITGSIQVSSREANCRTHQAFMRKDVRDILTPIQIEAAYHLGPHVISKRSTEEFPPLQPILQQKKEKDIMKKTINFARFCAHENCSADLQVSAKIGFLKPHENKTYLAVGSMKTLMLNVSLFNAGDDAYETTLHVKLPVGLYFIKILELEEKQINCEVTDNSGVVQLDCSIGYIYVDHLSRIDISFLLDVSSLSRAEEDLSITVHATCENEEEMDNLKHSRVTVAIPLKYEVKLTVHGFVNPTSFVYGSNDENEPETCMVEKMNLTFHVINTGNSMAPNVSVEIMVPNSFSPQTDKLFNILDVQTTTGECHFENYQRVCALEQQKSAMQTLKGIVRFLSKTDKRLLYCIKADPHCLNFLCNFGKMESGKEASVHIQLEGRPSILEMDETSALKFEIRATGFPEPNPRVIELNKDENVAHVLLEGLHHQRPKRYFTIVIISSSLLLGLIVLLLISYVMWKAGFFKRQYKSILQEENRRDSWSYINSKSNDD
# MEASUREMENT NOTES: Inhibition of integrin alpha-4-beta-1 receptor expressed in Jurkat J6 cells by SPA
# Format: cell-based
Report the value in nM with no unit label.

Below, each entry is followed by its recorded Ki result.
>>> observed_result("Cc1ccccc1NC(=O)Nc1ccc(-c2cccn(Cc3ccc([C@H](C)CC(=O)O)cc3)c2=O)c(C)c1")
1
>>> observed_result("CCOc1cc(NC(=O)Nc2ccccc2C)ccc1-c1cccn(Cc2ccc([C@@H](C)CC(=O)O)cc2)c1=O")
5.01
>>> observed_result("COc1cc(-c2cccn(Cc3ccc([C@H](C)CC(=O)O)cc3)c2=O)ccc1NC(=O)Nc1ccccc1C")
0.794
>>> observed_result("COc1cc(-c2cccn(Cc3ccc(CCC(=O)O)cc3)c2=O)ccc1NC(=O)Nc1cccc(C)c1C")
25.1

Look up Ki with Integrin alpha-4/beta-1 (Homo sapiens, UniProt P05556+P13612) for this compound: `Cc1ccccc1NC(=O)Nc1ccc(-c2cccn(Cc3ccc([C@@H](C)CC(=O)O)cc3)c2=O)c(Cl)c1` 2

Look up Ki with Integrin alpha-4/beta-1 (Homo sapiens, UniProt P05556+P13612) for this compound: `COc1cc(-c2cccn(Cc3ccc(CCC(=O)O)cc3)c2=O)ccc1NC(=O)Nc1ccccc1C(C)C` 316

Look up Ki with Integrin alpha-4/beta-1 (Homo sapiens, UniProt P05556+P13612) for this compound: `CCc1cc(NC(=O)Nc2ccccc2C)ccc1-c1cccn(Cc2ccc([C@@H](C)CC(=O)O)cc2)c1=O` 50.1

====

# Organism: Rattus norvegicus
# MEASUREMENT NOTES: Dose normalised AUC (0-8 hrs) in rat
# Assay type: ADME, organism-based
# Design: time < 8 hr
# TEST CONDITIONS: in vivo
ASSAY METRIC: AUC (kg·min/L)
Report the value in kg·min/L with no unit label.

>>> observed_result("COc1cc(-c2cccn(Cc3ccc(CCC(=O)O)cc3)c2=O)ccc1NC(=O)Nc1ccccc1C")
6
>>> observed_result("Cc1ccccc1NC(=O)Nc1ccc(-c2cccn(Cc3ccc(CCC(=O)O)cc3)c2=O)cc1")
3
>>> observed_result("COc1cc(-c2cccn(Cc3ccc([C@H](C)CC(=O)O)cc3)c2=O)ccc1NC(=O)Nc1ccccc1C")
154

Turning now to a further compound:
Could you share which AUC value was measured for `Cc1ccccc1NC(=O)Nc1ccc(-c2cccn(Cc3ccc([C@H](C)CC(=O)O)cc3)c2=O)cc1` ? 14

====

# MEASUREMENT NOTES: Bioavailability in Sprague-Dawley rat at 1 mg/kg, iv and 3 mg/kg, po
# Format: ADME, organism-based
# TEST CONDITIONS: in vivo
ASSAY METRIC: bioavailability (%)
Report the value in % with no unit label.

>>> observed_result("COc1cc(-c2cccn(Cc3ccc([C@H](C)CC(=O)O)cc3)c2=O)ccc1NC(=O)Nc1ccccc1C")
121

Could you share which bioavailability value was measured for `Cc1ccccc1NC(=O)Nc1ccc(-c2cccn(Cc3ccc([C@H](C)CC(=O)O)cc3)c2=O)cc1` ? 22
